Origin of values: PubChem BioAssay AID1963960

Tested on: MDA-MB-468 spheroids with HUVEC/MSC, viability
Test: Anticancer human tumor MDA-MB-468 cell line growth inhibition [PI3K];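 note: spheroids exposed to agents for seven days before readout; 100% = DMSO vehicle control viability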
Conditions: second compound 3.16 µM; first compound 1 µM; stronger effect = lower value
Recorded Metric: viability, T/C (%)
Express it in %; write the number only.

Compound	Units Of Measure	viability, T/C
CC1(C)CCC(CN2CCN(c3ccc(C(=O)NS(=O)(=O)c4ccc(NCC5CCOCC5)c([N+](=O)[O-])c4)c(Oc4cnc5[nH]ccc5c4)c3)CC2)=C(c2ccc(Cl)cc2)C1 + Cc1nc(NC(=O)N2CCCC2C(N)=O)sc1-c1ccnc(C(C)(C)C(F)(F)F)c1	%	66.3
CC(C)NCC(C(=O)N1CCN(c2ncnc3c2C(C)CC3O)CC1)c1ccc(Cl)cc1 (configuration not stated) + CC(Nc1ncnc2nc[nH]c12)c1cc2cccc(Cl)c2c(=O)n1-c1ccccc1	%	40.8
CC1(C)CCC(CN2CCN(c3ccc(C(=O)NS(=O)(=O)c4ccc(NCC5CCOCC5)c([N+](=O)[O-])c4)c(Oc4cnc5[nH]ccc5c4)c3)CC2)=C(c2ccc(Cl)cc2)C1 + CC(Nc1ncnc2nc[nH]c12)c1cc2cccc(Cl)c2c(=O)n1-c1ccccc1	%	49.4
C#Cc1c(F)ccc2cc(O)cc(-c3ncc4c(N5CC6CCC(C5)N6)nc(OCC56CCCN5CC(F)C6)nc4c3F)c12 (configuration not stated) + Cc1nc(NC(=O)N2CCCC2C(N)=O)sc1-c1ccnc(C(C)(C)C(F)(F)F)c1	%	53.4
CC(Cn1ccc(-c2ccc(C#N)c(Cl)c2)n1)NC(=O)c1cc(C(C)O)[nH]n1 (configuration not stated) + CC(Nc1ncnc2nc[nH]c12)c1cc2cccc(Cl)c2c(=O)n1-c1ccccc1	%	52.4

Task: Report viability, T/C for C#Cc1c(F)ccc2cc(O)cc(-c3ncc4c(N5CC6CCC(C5)N6)nc(OCC56CCCN5CC(F)C6)nc4c3F)c12 (configuration not stated) + CC(Nc1ncnc2nc[nH]c12)c1cc2cccc(Cl)c2c(=O)n1-c1ccccc1
Result: 60

Task: Report viability, T/C for CCN1CCN(Cc2ccc(Nc3ncc(F)c(-c4cc(F)c5nc(C)n(C(C)C)c5c4)n3)nc2)CC1 + CC(Nc1ncnc2nc[nH]c12)c1cc2cccc(Cl)c2c(=O)n1-c1ccccc1
Result: 48.1

---

System: MDA-MB-468 spheroids with HUVEC/MSC, viability
Assay: Anticancer human tumor MDA-MB-468 cell line growth inhibition [PI3K];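 note: spheroids exposed to agents for seven days before readout; 100% = DMSO vehicle control viability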
Conditions: second compound 0.1 µM; first compound 0.316 µM; stronger effect = lower value
Measured viability, T/C of individual entries
Express it in %; write the number only.

Compound	viability, T/C (%)
CC1(C)CCC(CN2CCN(c3ccc(C(=O)NS(=O)(=O)c4ccc(NCC5CCOCC5)c([N+](=O)[O-])c4)c(Oc4cnc5[nH]ccc5c4)c3)CC2)=C(c2ccc(Cl)cc2)C1 + COc1c(OCCCN2CCOCC2)ccc2c3n(c(=NC(=O)c4cnc(N)nc4)nc12)CCN3	69.7

Task: Report viability, T/C for Cn1ncc(Cl)c1-c1cc(C(=O)NC(CN)Cc2cccc(F)c2)sc1Cl (stereo not given) + COc1c(OCCCN2CCOCC2)ccc2c3n(c(=NC(=O)c4cnc(N)nc4)nc12)CCN3
Result: 33.9

Task: Report viability, T/C for Cn1ncc(Cl)c1-c1cc(C(=O)NC(CN)Cc2cccc(F)c2)sc1Cl (stereo not given) + Cc1nc(NC(=O)N2CCCC2C(N)=O)sc1-c1ccnc(C(C)(C)C(F)(F)F)c1
Result: 41.2

Task: Report viability, T/C for C#Cc1c(F)ccc2cc(O)cc(-c3ncc4c(N5CC6CCC(C5)N6)nc(OCC56CCCN5CC(F)C6)nc4c3F)c12 (stereo not given) + COc1c(OCCCN2CCOCC2)ccc2c3n(c(=NC(=O)c4cnc(N)nc4)nc12)CCN3
Result: 61.3

Task: Report viability, T/C for CC1(C)CCC(Nc2ncc(C(F)(F)F)c(-c3c[nH]c4c(P(C)(C)=O)c(C#N)ccc34)n2)CN1 (stereo not given) + CC(Nc1ncnc2nc[nH]c12)c1cc2cccc(Cl)c2c(=O)n1-c1ccccc1
Result: 8.64

Task: Report viability, T/C for C#Cc1c(F)ccc2cc(O)cc(-c3ncc4c(N5CC6CCC(C5)N6)nc(OCC56CCCN5CC(F)C6)nc4c3F)c12 (stereo not given) + CC(Nc1ccc2c(c1)OCCn1cc(N3C(=O)OCC3C(F)F)nc1-2)C(N)=O
Result: 72.1

---

System: MDA-MB-468 spheroids with HUVEC/MSC, viability
Experiment: Anticancer human tumor MDA-MB-468 cell line growth inhibition [PI3K];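 note: spheroids exposed to agents for seven days before readout; 100% = DMSO vehicle control viability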
Details: second compound 0.1 µM; first compound 0.00316 µM; stronger effect = lower value
Recorded Metric: viability, T/C (%)
Express it in %; write the number only.

Would you please look over these solved cases?
Compound	Experimental Target	Recorded Metric	Number
Cn1ncnc1[C@H]1c2n[nH]c(=O)c3cc(F)cc(c23)N[C@@H]1c1ccc(F)cc1 + CC(Nc1ccc2c(c1)OCCn1cc(N3C(=O)OCC3C(F)F)nc1-2)C(N)=O	MDA-MB-468 spheroids with HUVEC/MSC, viability	viability, T/C	72.4
Cn1ncnc1[C@H]1c2n[nH]c(=O)c3cc(F)cc(c23)N[C@@H]1c1ccc(F)cc1 + Cc1nc(NC(=O)N2CCCC2C(N)=O)sc1-c1ccnc(C(C)(C)C(F)(F)F)c1	MDA-MB-468 spheroids with HUVEC/MSC, viability	viability, T/C	81.9
CC(C)n1nc(-c2ccc3oc(N)nc3c2)c2c(N)ncnc21 + CC(Nc1ccc2c(c1)OCCn1cc(N3C(=O)OCC3C(F)F)nc1-2)C(N)=O	MDA-MB-468 spheroids with HUVEC/MSC, viability	viability, T/C	87.8
CC(=O)c1c(C)c2cnc(Nc3ccc(N4CCNCC4)cn3)nc2n(C2CCCC2)c1=O + COc1c(OCCCN2CCOCC2)ccc2c3n(c(=NC(=O)c4cnc(N)nc4)nc12)CCN3	MDA-MB-468 spheroids with HUVEC/MSC, viability	viability, T/C	58.8
CCN1CCN(Cc2ccc(Nc3ncc(F)c(-c4cc(F)c5nc(C)n(C(C)C)c5c4)n3)nc2)CC1 + Cc1nc(NC(=O)N2CCCC2C(N)=O)sc1-c1ccnc(C(C)(C)C(F)(F)F)c1	MDA-MB-468 spheroids with HUVEC/MSC, viability	viability, T/C	98.3

Task: Report viability, T/C for CC(C)n1nc(-c2ccc3oc(N)nc3c2)c2c(N)ncnc21 + Cc1nc(NC(=O)N2CCCC2C(N)=O)sc1-c1ccnc(C(C)(C)C(F)(F)F)c1
Result: 85.5

Task: Report viability, T/C for CC(=O)c1c(C)c2cnc(Nc3ccc(N4CCNCC4)cn3)nc2n(C2CCCC2)c1=O + CC(Nc1ncnc2nc[nH]c12)c1cc2cccc(Cl)c2c(=O)n1-c1ccccc1
Result: 84.1

Task: Report viability, T/C for CC(=O)c1c(C)c2cnc(Nc3ccc(N4CCNCC4)cn3)nc2n(C2CCCC2)c1=O + CC(Nc1ccc2c(c1)OCCn1cc(N3C(=O)OCC3C(F)F)nc1-2)C(N)=O
Result: 101

---

System: MDA-MB-468 spheroids with HUVEC/MSC, viability
Test: Anticancer human tumor MDA-MB-468 cell line growth inhibition [PI3K];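 note: spheroids exposed to agents for seven days before readout; 100% = DMSO vehicle control viability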
Details: second compound 0.0316 µM; first compound 0.0316 µM; stronger effect = lower value
Labelling: viability, T/C reported below 80% becomes true (1); at or above becomes false (0).

# example entries with known answers
Compound	Qualitative Label
CC(Cn1ccc(-c2ccc(C#N)c(Cl)c2)n1)NC(=O)c1cc(C(C)O)[nH]n1 (configuration not stated) + COc1c(OCCCN2CCOCC2)ccc2c3n(c(=NC(=O)c4cnc(N)nc4)nc12)CCN3	false (0)
C[C@@H](NC(=O)c1ncnc(N)c1Cl)c1ncc(C(=O)Nc2cc(C(F)(F)F)c(Cl)cn2)s1 + CC(Nc1ccc2c(c1)OCCn1cc(N3C(=O)OCC3C(F)F)nc1-2)C(N)=O	false (0)
CCCS(=O)(=O)Nc1ccc(F)c(C(=O)c2c[nH]c3ncc(-c4ccc(Cl)cc4)cc23)c1F + CC(Nc1ncnc2nc[nH]c12)c1cc2cccc(Cl)c2c(=O)n1-c1ccccc1	false (0)
CC(C)NCC(C(=O)N1CCN(c2ncnc3c2C(C)CC3O)CC1)c1ccc(Cl)cc1 (configuration not stated) + COc1c(OCCCN2CCOCC2)ccc2c3n(c(=NC(=O)c4cnc(N)nc4)nc12)CCN3	true (1)
CCN1CCN(Cc2ccc(Nc3ncc(F)c(-c4cc(F)c5nc(C)n(C(C)C)c5c4)n3)nc2)CC1 + CC(Nc1ccc2c(c1)OCCn1cc(N3C(=O)OCC3C(F)F)nc1-2)C(N)=O	false (0)

Task: Strictly below 80%: is that where viability, T/C of CNC(=O)c1ccc(N2C(=S)N(c3ccc(C#N)c(C(F)(F)F)c3)C(=O)C2(C)C)cc1F + COc1c(OCCCN2CCOCC2)ccc2c3n(c(=NC(=O)c4cnc(N)nc4)nc12)CCN3 sits?
Result: false (0)

Task: Strictly below 80%: is that where viability, T/C of CCCS(=O)(=O)Nc1ccc(F)c(C(=O)c2c[nH]c3ncc(-c4ccc(Cl)cc4)cc23)c1F + CC(Nc1ccc2c(c1)OCCn1cc(N3C(=O)OCC3C(F)F)nc1-2)C(N)=O sits?
Result: false (0)
